Listed here are molecules together with their documented Population Fragmented Nuclei (%).
system: Fibroblast; assay: Multiplex assay against human fibroblast; assay type: toxicity, cell-based; conditions: 48 h, 10 µM, compound concentration 10 uM, replicate 2
Quick reminder: number only, in %, skip the unit.

{"smilesRecord": "CCCCC(=O)N(Cc1ccc(-c2ccccc2-c2nnn[nH]2)cc1)[C@H](C(=O)O)C(C)C", "unitOfMeasure": "%", "Population Fragmented Nuclei (%)": 39}
{"smilesRecord": "Cc1cnc(-c2cc(N3CCN(C(=O)CCS(C)(=O)=O)CC3)ncc2Cl)c(C)c1", "unitOfMeasure": "%", "Population Fragmented Nuclei (%)": 29}
{"smilesRecord": "CC(=O)Nc1cccc2c1c(Sc1ccc(Cl)cc1)c(C)n2CC(=O)O", "unitOfMeasure": "%", "Population Fragmented Nuclei (%)": 43}
{"smilesRecord": "Cc1onc(-c2ccccc2Cl)c1C(=O)N(C)c1ccc(Cl)cc1", "unitOfMeasure": "%", "Population Fragmented Nuclei (%)": 31}

Then this molecule:
Request: Which Population Fragmented Nuclei (%) value belongs to `CC(C)COc1ccc(CNC(=O)N(Cc2ccc(F)cc2)C2CCN(C)CC2)cc1` ?
Result: 30

---

tested on: Fibroblast; test: Multiplex assay against human fibroblast; assay type: toxicity, cell-based; details: 12 h, 1 µM, compound concentration 1 uM, replicate 2
The label is T for Population Fragmented Nuclei (%) below 30% and F for Population Fragmented Nuclei (%) equal to or exceeding 30%.

{"compound": "CC(C)c1noc(N2CCC(COc3ccc(-c4ccc(S(C)(=O)=O)cc4)nc3)CC2)n1", "classLabel": "T"}
{"compound": "CN(C)C(=O)Cn1cc(-c2ccc(-c3cncc4ccccc34)cc2)cn1", "classLabel": "F"}
{"compound": "CC(/C=C1\\SC(=S)N(CCCC(=O)Nc2ccc(C(=O)O)c(O)c2)C1=O)=C\\c1ccccc1", "classLabel": "T"}
{"compound": "CC(C)COc1ccc(CNC(=O)N(Cc2ccc(F)cc2)C2CCN(C)CC2)cc1", "classLabel": "F"}

Request: Is Population Fragmented Nuclei (%) of `CN[C@@H](C)C(=O)N[C@H](C(=O)N1CCC[C@H]1C(=O)Nc1snnc1-c1ccccc1)C1CCCCC1` strictly below 30%?
Result: T

Request: Is Population Fragmented Nuclei (%) of `NCCc1cn(S(=O)(=O)c2c(Cl)nc3sccn23)c2ccccc12.O=C(O)C(=O)O` strictly below 30%?
Result: F

Request: Is Population Fragmented Nuclei (%) of `O=C1[C@H](Cc2ccc(O)cc2)N2C(=O)CCN(C(=O)NCc3ccccc3)[C@H]2CN1Cc1cccc2ccccc12` strictly below 30%?
Result: T

Request: Is Population Fragmented Nuclei (%) of `Cc1cccc(NC(=O)CN2CCC(c3ccccn3)CC2)c1.Cl.Cl` strictly below 30%?
Result: T

---

Listed here are compounds together with their documented Population Healthy Nuclei (%).
test system: Fibroblast; assay: Multiplex assay against human fibroblast; format: toxicity, cell-based; conditions: 48 h, 10 µM, compound concentration 10 uM, replicate 2
Number plus unit, in that order.

Use these answered entries as a reference point.
{"compound": "Br.CS(=O)(=O)Nc1c(O)ccc2c1CCCC2C1=NCCN1 (stereo not drawn)", "Population Healthy Nuclei (%)": "44%"}
{"compound": "Cc1cccc(NC(=O)CN2CCC(c3ccccn3)CC2)c1.Cl.Cl", "Population Healthy Nuclei (%)": "39%"}
{"compound": "C[C@H](N)COC(=O)[C@@H](CCCCN)NC(=O)Cc1c(-c2ccc3ccccc3c2)[nH]c2c1ccc1ccccc12", "Population Healthy Nuclei (%)": "52%"}
{"compound": "CCCCC(=O)N(Cc1ccc(-c2ccccc2-c2nnn[nH]2)cc1)[C@H](C(=O)O)C(C)C", "Population Healthy Nuclei (%)": "39%"}
{"compound": "Cc1noc(-c2ccc(-c3ccc(CC(=O)O)cc3)cc2)c1NC(=O)O[C@H](C)c1ccccc1Cl", "Population Healthy Nuclei (%)": "37%"}
{"compound": "O=C(NCCN1CCC(n2c(=O)[nH]c3cc(Cl)ccc32)CC1)c1ccc(F)cc1 [HALOPEMIDE]", "Population Healthy Nuclei (%)": "45%"}

Request: Which Population Healthy Nuclei (%) is reported with Fibroblast for this entry: `CC(/C=C1\SC(=S)N(CCCC(=O)Nc2ccc(C(=O)O)c(O)c2)C1=O)=C\c1ccccc1` ?
Result: 46%

Request: Which Population Healthy Nuclei (%) is reported with Fibroblast for this entry: Cl.N=C(N)NC(=O)Cc1c(Cl)cccc1Cl [GUANFACINE HYDROCHLORIDE] ?
Result: 41%

Request: Which Population Healthy Nuclei (%) is reported with Fibroblast for this entry: `COc1ccccc1N1CCN(C[C@@H](C(=O)NC(C)(C)C)c2ccccc2)CC1.Cl.Cl` ?
Result: 41%

Request: Which Population Healthy Nuclei (%) is reported with Fibroblast for this entry: `O=C1[C@H](Cc2ccc(O)cc2)N2C(=O)CCN(C(=O)NCc3ccccc3)[C@H]2CN1Cc1cccc2ccccc12` ?
Result: 53%

Request: Which Population Healthy Nuclei (%) is reported with Fibroblast for this entry: `CCc1cc2cc(NS(=O)(=O)c3ccc(C#N)cc3)ccc2n(CC)c1=O` ?
Result: 48%

Request: Which Population Healthy Nuclei (%) is reported with Fibroblast for this entry: Cl.NCCc1ccc(O)c(O)c1 [DOPAMINE HYDROCHLORIDE] ?
Result: 60%

Request: Which Population Healthy Nuclei (%) is reported with Fibroblast for this entry: `CN[C@@H](C)C(=O)N[C@H](C(=O)N1CCC[C@H]1C(=O)Nc1snnc1-c1ccccc1)C1CCCCC1` ?
Result: 42%

---

test system: Fibroblast; assay: Multiplex assay against human fibroblast; assay type: toxicity, cell-based; settings: 12 h, 1 µM, compound concentration 1 uM, replicate 1
reportedEndpoint: Total Cell Count
Write no unit; give the number alone.

Request: Which Total Cell Count value belongs to `CCCCC(=O)N(Cc1ccc(-c2ccccc2-c2nnn[nH]2)cc1)[C@H](C(=O)O)C(C)C` ?
Result: 143

Request: Which Total Cell Count value belongs to `CC(=O)Nc1cccc2c1c(Sc1ccc(Cl)cc1)c(C)n2CC(=O)O` ?
Result: 173

Request: Which Total Cell Count value belongs to `O=C(CCCc1ccccc1)Nc1nc2ccccc2c(=O)s1` ?
Result: 127

Request: Which Total Cell Count value belongs to `CN(C)C(=O)Cn1cc(-c2ccc(-c3cncc4ccccc34)cc2)cn1` ?
Result: 139

Request: Which Total Cell Count value belongs to `CC(C)(C)c1cc(NC(=O)Nc2ccc(-c3cn4c(n3)sc3cc(OCCN5CCOCC5)ccc34)cc2)no1` ?
Result: 150

Request: Which Total Cell Count value belongs to `C[C@H](N)COC(=O)[C@@H](CCCCN)NC(=O)Cc1c(-c2ccc3ccccc3c2)[nH]c2c1ccc1ccccc12` ?
Result: 179

---

system: Fibroblast; assay: Multiplex assay against human fibroblast; format: toxicity, cell-based; conditions: 48 h, 10 µM, compound concentration 10 uM, replicate 2
reportedEndpoint: Population Mitotic Cells (%)
Quick reminder: number only, in %, skip the unit.

Use these answered entries as a reference point.
{"compound": "CN1CCN(c2cc(-c3ccccc3)nc(N)n2)CC1", "Population Mitotic Cells (%)": 33}
{"compound": "CCCOc1ccc2[nH]cc(C3=CCNCC3)c2n1.Cl", "Population Mitotic Cells (%)": 40}
{"compound": "CN[C@@H](C)C(=O)N[C@H](C(=O)N1CCC[C@H]1C(=O)Nc1snnc1-c1ccccc1)C1CCCCC1 [GDC-0152]", "Population Mitotic Cells (%)": 55}
{"compound": "CC(C)COc1ccc(CNC(=O)N(Cc2ccc(F)cc2)C2CCN(C)CC2)cc1 [PIMAVANSERIN]", "Population Mitotic Cells (%)": 25}
{"compound": "O=C(CCCc1ccccc1)Nc1nc2ccccc2c(=O)s1", "Population Mitotic Cells (%)": 22}
{"compound": "CCc1cc2cc(NS(=O)(=O)c3ccc(C#N)cc3)ccc2n(CC)c1=O", "Population Mitotic Cells (%)": 39}
{"compound": "CCCCCC(O)/C=C/[C@H]1C(=O)CC(O)C1C/C=C\\CCCC(=O)O (stereo not given in full)", "Population Mitotic Cells (%)": 66}
{"compound": "CC[C@@H](C)Nc1nc(C)nc2c(-c3ccc(OC)nc3C)c(C)nn12 [PEXACERFONT]", "Population Mitotic Cells (%)": 47}
{"compound": "Cl.NCCc1ccc(O)c(O)c1 [DOPAMINE HYDROCHLORIDE]", "Population Mitotic Cells (%)": 10}

Request: Which Population Mitotic Cells (%) is reported with Fibroblast for this entry: `Cc1onc(-c2ccccc2Cl)c1C(=O)N(C)c1ccc(Cl)cc1` ?
Result: 35

---

test system: U2OS; assay: Multiplex assay against U2OS; format: toxicity, cell-based; conditions: human, 24 h, 1 µM, compound concentration 1 uM, replicate 1
Listed here are compounds together with their documented Population Tubulin-Different-Phenotype (%).
Quick reminder: number only, in %, skip the unit.

Use these answered entries as a reference point.
{"compound": "CC(C)c1noc(N2CCC(COc3ccc(-c4ccc(S(C)(=O)=O)cc4)nc3)CC2)n1", "testedSystem": "U2OS", "result": 3}
{"compound": "COC[C@@H](c1ccc(C(F)(F)F)cc1)N1CCN(C2(C)CCN(C(=O)c3c(C)ncnc3C)CC2)C[C@@H]1C.O=C(O)/C=C\\C(=O)O [VICRIVIROC MALEATE]", "testedSystem": "U2OS", "result": 2}
{"compound": "CN[C@@H](C)C(=O)N[C@H](C(=O)N1CCC[C@H]1C(=O)Nc1snnc1-c1ccccc1)C1CCCCC1", "testedSystem": "U2OS", "result": 19}
{"compound": "N#Cc1c(Oc2cccc(OS(=O)(=O)CCCC(F)(F)F)c2)cccc1C(F)(F)F", "testedSystem": "U2OS", "result": 3}
{"compound": "CC[C@@H](C)Nc1nc(C)nc2c(-c3ccc(OC)nc3C)c(C)nn12", "testedSystem": "U2OS", "result": 2}
{"compound": "Cl.N=C(N)NC(=O)Cc1c(Cl)cccc1Cl [GUANFACINE HYDROCHLORIDE]", "testedSystem": "U2OS", "result": 2}
{"compound": "Cc1noc(-c2ccc(-c3ccc(CC(=O)O)cc3)cc2)c1NC(=O)O[C@H](C)c1ccccc1Cl", "testedSystem": "U2OS", "result": 3}

Request: Which Population Tubulin-Different-Phenotype (%) value belongs to `N#Cc1cc(F)cc(-c2nc(-c3ccc(F)cn3)no2)c1` ?
Result: 4

Data provenance: ChEMBL document CHEMBL5058577
